Known pKi of a selection of compounds
Molecular target: Protein-glutamine gamma-glutamyltransferase (Homo sapiens)
Sequence (P21980 whole entry): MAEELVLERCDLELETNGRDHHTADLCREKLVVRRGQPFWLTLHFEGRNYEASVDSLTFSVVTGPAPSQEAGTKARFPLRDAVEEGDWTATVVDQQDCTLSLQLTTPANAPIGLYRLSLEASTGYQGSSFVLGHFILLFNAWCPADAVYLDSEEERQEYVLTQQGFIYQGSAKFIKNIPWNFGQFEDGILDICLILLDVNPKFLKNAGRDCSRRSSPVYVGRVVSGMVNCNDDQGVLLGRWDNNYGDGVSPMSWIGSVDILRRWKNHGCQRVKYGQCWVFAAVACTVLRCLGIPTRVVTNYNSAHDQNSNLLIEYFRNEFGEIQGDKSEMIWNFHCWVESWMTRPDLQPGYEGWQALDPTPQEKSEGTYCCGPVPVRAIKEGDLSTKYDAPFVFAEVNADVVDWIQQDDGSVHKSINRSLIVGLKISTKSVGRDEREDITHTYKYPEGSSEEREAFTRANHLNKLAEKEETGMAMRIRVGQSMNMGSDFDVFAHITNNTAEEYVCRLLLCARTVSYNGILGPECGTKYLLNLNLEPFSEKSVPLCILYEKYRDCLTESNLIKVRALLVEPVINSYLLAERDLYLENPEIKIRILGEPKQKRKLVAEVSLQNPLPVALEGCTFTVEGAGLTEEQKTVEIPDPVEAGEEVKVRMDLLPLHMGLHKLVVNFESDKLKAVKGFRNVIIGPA
Assay: Inhibition of human transglutaminase 2 using Cbz-Gln-Gly as a substrate by GDH-coupled assay
Conceptually, pKi converts a concentration in mol/L into minus its log10.

O=C1Nc2ccccc2/C1=C\C(=O)c1cccnc1 ... 4.92

Request: // fetch pKi given entry `CC(=O)/C=C1/C(=O)Nc2cccc(Cl)c21`
Response: 6.15

Request: // fetch pKi given entry `O=C1Nc2ccc(Oc3ccc4c(c3)C(=O)C(=O)N4)cc2C1=O`
Response: 5.52

Request: // fetch pKi given entry `CC(=O)/C=C1/C(=O)Nc2cc(F)ccc21`
Response: 5.27

Request: // fetch pKi given entry `O=C1Nc2cccc(Cl)c2/C1=C\C(=O)c1cccnc1`
Response: 5.89

Request: // fetch pKi given entry `O=C(/C=C1/C(=O)N(Cc2ccccc2)c2cccc(Cl)c21)c1cccnc1`
Response: 6.39

###

biological target: Protein-glutamine gamma-glutamyltransferase (Homo sapiens, UniProt P21980); experiment: Inhibition of human transglutaminase 2 using Cbz-Gln-Gly as a substrate by GDH-coupled assay
Known pKi of a selection of compounds
Conceptually, pKi converts a concentration in mol/L into minus its log10.

Worked cases, answers included:
O=C1Nc2ccccc2/C1=C1\C(=O)Nc2ccccc21 [ISOINDIGO] ... 4.39
CC(=O)/C=C1/C(=O)Nc2ccccc21 ... 5.00
Cc1cc(C)c(CN2C(=O)C(=O)c3ccccc32)cc1CN1C(=O)C(=O)c2ccccc21 ... 4.96
O=C1C(=O)N(CN2C(=O)C(=O)c3ccccc32)c2ccccc21 ... 5.00

Turning to the following compound.
Request: // fetch pKi given entry `O=C1Nc2cc(Cl)ccc2/C1=C\C(=O)c1cccnc1`
Response: 5.28
